Molecular target: xanthine oxidase (Homo sapiens)
Sequence (P47989 whole entry, species assumed): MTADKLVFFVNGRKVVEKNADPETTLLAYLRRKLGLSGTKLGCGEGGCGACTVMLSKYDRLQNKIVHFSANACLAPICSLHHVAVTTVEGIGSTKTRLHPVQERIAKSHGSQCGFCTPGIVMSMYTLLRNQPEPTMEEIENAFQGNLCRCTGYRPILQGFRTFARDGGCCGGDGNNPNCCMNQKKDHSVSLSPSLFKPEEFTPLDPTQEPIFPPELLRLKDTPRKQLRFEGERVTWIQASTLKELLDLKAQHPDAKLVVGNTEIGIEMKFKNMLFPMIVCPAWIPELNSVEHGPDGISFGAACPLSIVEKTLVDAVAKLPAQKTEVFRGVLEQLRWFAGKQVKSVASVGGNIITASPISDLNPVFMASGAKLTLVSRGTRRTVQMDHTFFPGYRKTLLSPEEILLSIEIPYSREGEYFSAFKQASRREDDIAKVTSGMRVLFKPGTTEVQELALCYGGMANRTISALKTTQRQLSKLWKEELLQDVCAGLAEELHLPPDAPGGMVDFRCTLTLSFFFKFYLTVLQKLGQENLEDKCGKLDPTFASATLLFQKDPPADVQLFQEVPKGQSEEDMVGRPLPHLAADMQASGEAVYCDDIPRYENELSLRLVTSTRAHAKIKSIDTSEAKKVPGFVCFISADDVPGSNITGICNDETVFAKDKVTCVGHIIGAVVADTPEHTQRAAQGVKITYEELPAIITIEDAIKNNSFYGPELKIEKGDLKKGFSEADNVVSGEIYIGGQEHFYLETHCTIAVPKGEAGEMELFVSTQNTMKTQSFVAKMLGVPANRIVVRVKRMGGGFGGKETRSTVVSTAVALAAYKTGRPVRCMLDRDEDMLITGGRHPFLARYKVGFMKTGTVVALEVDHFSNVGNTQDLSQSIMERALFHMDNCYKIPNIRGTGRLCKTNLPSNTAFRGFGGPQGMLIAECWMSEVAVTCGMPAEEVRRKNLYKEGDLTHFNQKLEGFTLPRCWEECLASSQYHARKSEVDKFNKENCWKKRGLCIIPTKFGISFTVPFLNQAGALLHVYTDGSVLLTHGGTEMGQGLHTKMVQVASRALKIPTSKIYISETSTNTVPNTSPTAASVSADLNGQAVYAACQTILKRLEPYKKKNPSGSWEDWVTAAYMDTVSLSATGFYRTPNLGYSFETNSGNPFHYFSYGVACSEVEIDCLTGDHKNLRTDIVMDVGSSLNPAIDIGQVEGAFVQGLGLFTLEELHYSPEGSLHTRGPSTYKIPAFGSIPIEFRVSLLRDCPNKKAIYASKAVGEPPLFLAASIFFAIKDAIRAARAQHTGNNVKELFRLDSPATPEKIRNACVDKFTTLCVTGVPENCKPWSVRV
Experiment: Xanthine oxidase inhibitory activity, 96 well plate, kinetic reading at 295 nm
Type: biochemical
Settings: compound concentration 1 μM
attribute measured: PERCENT XANTHINE OXIDASE INHIBITION (%)

Consider the worked cases shown below.
### Prompt If you can, please state the reported PERCENT XANTHINE OXIDASE INHIBITION value of Cc1ccc(NC(=O)c2ccc(-c3nnn[nH]3)cc2)cc1 [Compound JN] .
### Response 88

### Prompt What value of measured PERCENT XANTHINE OXIDASE INHIBITION is listed for c1cc(-c2nnn[nH]2)ccc1OCC1CCCCC1 [IN] ?
### Response 68

### Prompt Given the entry COc1ccc(NC(=O)c2ccc(-c3nnn[nH]3)cc2)cc1 [IJ] , report its measured PERCENT XANTHINE OXIDASE INHIBITION.
### Response 93

### Prompt Can you share its PERCENT XANTHINE OXIDASE INHIBITION? I mean this molecule: O=C(Nc1ccc(Cl)c(Cl)c1)c1ccc(-c2nnn[nH]2)cc1 [JL]
### Response 95

### Prompt Would you kindly share the measured PERCENT XANTHINE OXIDASE INHIBITION for O=C(Nc1ccccc1F)c1ccc(-c2nnn[nH]2)cc1 [HY] ?
### Response 86

P. O=C(Nc1ccc(Cl)cc1)c1ccc(-c2nnn[nH]2)cc1 [IX]
Q. O=C(OCCN1C(=O)CCC1=O)c1ccc(-c2nnn[nH]2)cc1 [GW]
### Prompt Determine, for P and Q , which has the greater value of PERCENT XANTHINE OXIDASE INHIBITION. Indicate your choice by writing its label.
### Response P
